inhibition values for the compounds below.
- measured.on: Sialate O-acetylesterase (Homo sapiens) (UniProt Q9HAT2)
- Sequence (Q9HAT2 whole entry, looked up): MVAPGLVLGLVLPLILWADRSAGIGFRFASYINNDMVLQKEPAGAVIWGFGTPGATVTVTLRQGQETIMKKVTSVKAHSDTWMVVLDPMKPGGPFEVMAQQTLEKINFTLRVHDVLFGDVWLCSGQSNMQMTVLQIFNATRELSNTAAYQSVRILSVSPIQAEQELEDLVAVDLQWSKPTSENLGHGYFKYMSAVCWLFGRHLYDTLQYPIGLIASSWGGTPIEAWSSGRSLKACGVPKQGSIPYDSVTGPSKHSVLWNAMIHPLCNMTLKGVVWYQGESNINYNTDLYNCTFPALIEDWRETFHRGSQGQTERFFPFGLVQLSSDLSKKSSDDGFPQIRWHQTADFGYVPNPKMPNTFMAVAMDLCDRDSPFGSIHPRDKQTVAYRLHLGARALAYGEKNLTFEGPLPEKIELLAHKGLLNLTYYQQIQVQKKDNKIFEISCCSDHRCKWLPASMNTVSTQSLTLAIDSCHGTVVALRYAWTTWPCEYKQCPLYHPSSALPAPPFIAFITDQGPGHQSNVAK
- protocol: human SIAE inhibitors, retest, confirmation, biochemical, fluorescence polarization, FP-Rh probe, triplicate (AID 1117263);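 also: 0% = SIAE with DMSO and probe and 100% = probe without SIAE; inhibitors lower polarization as more probe stays unbound to SIAE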
- particulars: SIAE FP-Rh activity-based probe, at 9.66 µM, hits give high values
The whole screen tested about 2,300 compounds, of which about 300 (13%) were called active. These entries were drawn from the full list.

compound: CCN(C(=O)COC(=O)C1CCN(S(=O)(=O)c2ccc(C)c(C)c2)CC1)C1CCS(=O)(=O)C1 (centres undefined)
unit.info: %
inhibition: 2.26
//
compound: O=c1[nH]n(-c2ccc([N+](=O)[O-])cc2)c(=O)c2ccccc12
unit.info: %
inhibition: 19
//
compound: Cc1ccc(NC(=S)NCCN2CCOCC2)cc1
unit.info: %
inhibition: 2.38
//
compound: COc1cc(/C=N\Nc2nc(-c3cccs3)c(NC(C)=O)s2)ccc1O
unit.info: %
inhibition: 13.2
//
compound: COc1cccc(/C=N/Nc2cc(C)nc(-c3ccccc3O)n2)c1O
unit.info: %
inhibition: -14.6
//
compound: CNC(=S)NNC(=O)c1oc2nc(-c3ccccc3)cc(-c3ccco3)c2c1N
unit.info: %
inhibition: 3.72
//
compound: CN(CC(=O)Nc1cccc(F)c1)CC(=O)Nc1cccc([N+](=O)[O-])c1
unit.info: %
inhibition: 1.24
//
compound: O=C(CC[C@H]1O[C@@H](n2ccc(=O)[nH]c2=O)[C@H](O)[C@@H]1O)N[C@H](Cc1ccccc1)C(=O)NCCCN1CCCC1=O
unit.info: %
inhibition: 32.5
//
compound: c1ccc2[nH]c(-c3nc4ccccc4[nH]3)nc2c1
unit.info: %
inhibition: 5.66
//
compound: NNC(=O)c1oc2nc(-c3ccccc3)cc(-c3ccco3)c2c1N
unit.info: %
inhibition: 56
//
compound: Cc1cc2ccccc2n1CCNC(=O)COc1ccc2ccccc2c1
unit.info: %
inhibition: 9.71
//
compound: Cc1nc2cc(NCc3cccs3)ccc2n1C
unit.info: %
inhibition: -2.47
//
compound: Cc1ccc(/C=N/NC(=O)c2cc3ccccc3cc2O)o1
unit.info: %
inhibition: 3.65
//
compound: Oc1ccc(CNc2ccccc2O)cc1
unit.info: %
inhibition: -1.96
//
compound: Cc1ccc(Nc2nc(-c3ccc(O)cc3O)cs2)nc1
unit.info: %
inhibition: 9.2
//
compound: CN(C)c1ccc(N/C=C/C(=O)C(F)(F)F)cc1
unit.info: %
inhibition: 2.35
//
compound: CCn1c(SC)nc(O)c(C(c2ccc(OC)c(O)c2)c2c(O)nc(SC)n(CC)c2=O)c1=O
unit.info: %
inhibition: -4.61
//
compound: CCOc1cc(N2CCOCC2)c(OCC)cc1NC(=O)COc1cccc2cccnc12
unit.info: %
inhibition: 8.9
//
compound: COc1ccccc1/C=C/C=N/NC(=O)CN1CCN(Cc2ccccc2)CC1
unit.info: %
inhibition: -1.91
